# Test system: Kuramochi cells labeled with mApple-H2B
# assay overview: IncuCyte Cell Proliferation Assay
# Assay type: cell-based
# run parameters: 72 h
pIC50: −log10 of the molar value.
Items are presented alongside their recorded pIC50.

**Query** For COC[C@H]1CCCN(C(=O)[C@@H](NC(=O)[C@@H]2CN(C(=O)c3cncs3)CC23CN(C(=O)[C@H]2CC2(C)C)C3)[C@@H](C)OC(C)C2CCCCC2)C1 (stereo partly drawn) , what is its reported pIC50?
**Result** 5.30 to 6.30

**Query** For [2H]C([2H])([2H])NC(=O)C(NC(=O)[C@@H]1CN(C(=O)c2cncs2)CC12CN(C(=O)[C@H]1CC1(C)C)C2)c1cccc(N2CCOCC2)n1 (stereo partly drawn) , what is its reported pIC50?
**Result** < 4.70

**Query** For `C[C@@H](OCC1CCCCC1)[C@@H](COC1CCC(F)(F)CC1)NC(=O)[C@@H]1CN(C(=O)c2cnn(Cc3ccccc3)c2)CC12CN(C(=O)[C@H]1CC1(C)C)C2` , what is its reported pIC50?
**Result** ≥ 6.30

**Query** For `C[C@@H](OCC1CCCCC1)[C@H](NC(=O)[C@@H]1CN(C(=O)c2cncs2)CC12CN(C(=O)[C@H]1CC1(F)F)C2)C(=O)N1CCCCC1` , what is its reported pIC50?
**Result** 5.30 to 6.30

**Query** For `C[C@@H](OCC1CCC(F)(F)CC1)[C@@H](COC1CCC(F)(F)CC1)NC(=O)[C@@H]1CN(C(=O)c2cncs2)CC12CN(C(=O)[C@H]1CC1(C)C)C2` , what is its reported pIC50?
**Result** 5.30 to 6.30

**Query** For CNC(=O)[C@@H](NC(=O)[C@@H]1CN(C(=O)c2cnn(Cc3ccccc3)c2)CC12CN(C(=O)[C@H]1CC1(C)C)C2)[C@@H](C)OCC1C[C@@H](C)C[C@@H](C)C1 (stereo partly drawn) , what is its reported pIC50?
**Result** 5.30 to 6.30
